# testTarget: delta (Mus musculus, UniProt P32300)
# Construct: Vasa deferentia were obtained from CD-1 mice
# Sequence (P32300 whole entry): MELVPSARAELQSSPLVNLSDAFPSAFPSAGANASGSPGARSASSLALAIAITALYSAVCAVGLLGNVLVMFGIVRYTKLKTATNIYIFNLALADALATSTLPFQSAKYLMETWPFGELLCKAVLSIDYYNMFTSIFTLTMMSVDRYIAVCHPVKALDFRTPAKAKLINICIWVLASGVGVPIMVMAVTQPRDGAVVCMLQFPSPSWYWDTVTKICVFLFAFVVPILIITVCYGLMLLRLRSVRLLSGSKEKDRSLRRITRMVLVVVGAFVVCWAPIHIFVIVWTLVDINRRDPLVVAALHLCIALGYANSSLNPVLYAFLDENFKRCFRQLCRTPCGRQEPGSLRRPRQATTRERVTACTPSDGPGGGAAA
# experiment: Mouse vas deferens (MVD) bioassay, delta agonist/antagonist activity
# conditionsUsed: CD-1 mouse vasa deferentia, electrically stimulated, Mg2+-free Krebs buffer, 37° C.
pIC50: −log10 of the molar value.
measuredProperty: pIC50

compound="CCN(CC)C(=O)c1ccc(/C(=C\\CN2CCCC2)c2cccc(O)c2)cc1 [Example 2]" recordedvalue=7.52

Hello, the source for this data is patent US6262104A, in case you need it.
